B1: Gamma-crystallin C, residues 4 to 79; numbered along this chain, P07315 (parent)
chain: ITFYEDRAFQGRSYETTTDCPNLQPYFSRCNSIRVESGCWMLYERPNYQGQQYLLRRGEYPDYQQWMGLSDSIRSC

# Variants of: B1
# test: abundance fitness (aPCA) (normalised: wild type 0, dead -1); higher = more abundant; growth selection in yeast, the domain comes from the species named
# protocol conditions: Homo sapiens
quantity name: abundance fitness
Answers are plain numbers.

For each of the variants below, state abundance fitness.
1. L69P
2. L54H
3. Q10M
4. P21L
5. Y43V

Ans:
[-0.07, -0.068, -0.228, -0.023, -1.05]

Please look at the items below and tell me abundance fitness for each one, in order.
1. Q49W
2. F9E
3. P21W
4. D19C
5. Q64W
6. G68Y

Ans:
[-0.275, -0.367, -0.05, -0.052, -0.021, 0.097]

Each variant below has a recorded value; state its abundance fitness.
1. S13D
2. I73M
3. S72D
4. I73W

Ans:
[-0.122, 0.106, -0.21, 0.124]
